Tested on: BDF1 mice, P388 leukemia ip, median survival T/C
Assay: NCI In Vivo Anticancer Drug Screen. Data for tumor model P388 Leukemia (intraperitoneal) in B6D2F1 (BDF1) mice
Conditions: endpoint: median survival time; dose: 50.0 mg/kg/injection; schedule: Q04DX003 (ip); vehicle: saline with Tween-80; higher = longer survival
Inconclusive results and toxic doses are left out.
For each record, write down the corresponding T/C.

Prompt: // query T/C value for entry ClCCCCCCCCCCc1ccccc1
Completion: 106 % of control

Prompt: // query T/C value for entry COC(=O)C(CSCc1ccccc1)NC(=O)CCNC(=O)OCc1ccccc1 (stereo not drawn)
Completion: 100 % of control

Prompt: // query T/C value for entry OC(Cc1ccnc2ccccc12)C(Cl)(Cl)Cl (stereo not drawn)
Completion: 100 % of control

Prompt: // query T/C value for entry O=C(COc1ccc(Cl)cc1Cl)Oc1c(Cl)c(Cl)c(Cl)c(Cl)c1Cl
Completion: 91 % of control

Prompt: // query T/C value for entry [O-][n+]1ccc(Cl)c2ccsc21
Completion: 95 % of control

Prompt: // query T/C value for entry COc1cc(C(=O)N(CCCl)N=O)cc(OC)c1OC
Completion: 100 % of control

Prompt: // query T/C value for entry CC(=O)n1cc(C2CC(=O)OC3=C2CC(=O)C(C)(C)C3)c2ccccc21 (stereo not drawn)
Completion: 100 % of control

Prompt: // query T/C value for entry CCOC(=O)C1(C(C)C)OC2CCCCCN2C1=O (stereo not drawn)
Completion: 100 % of control

Prompt: // query T/C value for entry Cc1cnc(Cl)nc1Sc1nc(N)nc2nc[nH]c12
Completion: 122 % of control

Prompt: // query T/C value for entry CC(Cc1ccccc1)C(N)=O (stereo not drawn)
Completion: 105 % of control

Prompt: // query T/C value for entry O=[N+]([O-])/C=C/c1ccc([N+](=O)[O-])cc1
Completion: 118 % of control

Prompt: // query T/C value for entry O=c1cc(Cl)[nH]c(=O)[nH]1
Completion: 97 % of control

Prompt: // query T/C value for entry O=[N+]([O-])/C=C/c1cccc(F)c1
Completion: 93 % of control

----------
Tested on: BDF1 mice, P388 leukemia ip, median survival T/C
Assay: NCI In Vivo Anticancer Drug Screen. Data for tumor model P388 Leukemia (intraperitoneal) in B6D2F1 (BDF1) mice
Conditions: endpoint: median survival time; dose: 100.0 mg/kg/injection; schedule: Q04DX003 (ip); vehicle: saline; higher = longer survival
Inconclusive results and toxic doses are left out.
Experimental Readout: T/C

Prompt: // query T/C value for entry NNc1nc2c(N)ncnc2n1C1OC(CO)C(O)C1O (centres undefined)
Completion: 115 % of control

Prompt: // query T/C value for entry CC(C)(C)OC(=O)NC(Cc1cncn1Cc1ccccc1)C(=O)NC(Cc1c[nH]c2ccccc12)C(=O)OCc1ccccc1 (centres undefined)
Completion: 106 % of control

Prompt: // query T/C value for entry COc1cc(NS(C)(=O)=O)ccc1Nc1c2ccc([N+](=O)[O-])cc2nc2c(C)c(C)ccc12
Completion: 95 % of control

Prompt: // query T/C value for entry Cc1cc(C)c(NC(=O)N(CCCl)N=O)cc1C
Completion: 108 % of control

----------
Tested on: BDF1 mice, P388 leukemia ip, median survival T/C
Experiment: NCI In Vivo Anticancer Drug Screen. Data for tumor model P388 Leukemia (intraperitoneal) in B6D2F1 (BDF1) mice
Conditions: endpoint: median survival time; dose: 50.0 mg/kg/injection; schedule: Q01DX009 (ip); vehicle: saline with Tween-80; higher = longer survival
Toxic doses and inconclusive results are not listed.
Experimental Readout: T/C

Prompt: // query T/C value for entry COC(CNC(=O)Nc1cccnc1)[CH2][Hg][Cl] (stereo not given)
Completion: 100 % of control

Prompt: // query T/C value for entry COc1cc([N+](=O)[O-])ccc1NC(=O)NCc1ccccc1
Completion: 95 % of control

Prompt: // query T/C value for entry CCOC(=O)CC1=NN(C(=O)c2ccccc2)C(=NC(=O)c2ccccc2)SC1
Completion: 99 % of control

Prompt: // query T/C value for entry O=c1[nH]cnc2c(Cl)c(C(Cl)(Cl)Cl)nn12 (tested in a mixture with another compound)
Completion: 99 % of control

Prompt: // query T/C value for entry CCOCc1ccc(OCc2ccccc2)cc1
Completion: 94 % of control
